List of pIC50 tested on LTD4 receptor (Cavia porcellus, UniProt Q2NNR5).
Sequence (Q2NNR5 whole entry): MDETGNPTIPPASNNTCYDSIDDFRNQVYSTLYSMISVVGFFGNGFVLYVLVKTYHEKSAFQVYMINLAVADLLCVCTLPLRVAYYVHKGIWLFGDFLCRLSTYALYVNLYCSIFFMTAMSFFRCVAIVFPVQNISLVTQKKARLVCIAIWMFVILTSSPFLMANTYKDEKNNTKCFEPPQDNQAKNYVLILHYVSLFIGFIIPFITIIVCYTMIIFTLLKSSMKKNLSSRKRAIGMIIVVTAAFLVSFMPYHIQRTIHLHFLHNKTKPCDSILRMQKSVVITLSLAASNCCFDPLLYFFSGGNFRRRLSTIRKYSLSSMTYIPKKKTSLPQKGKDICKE
pIC50: −log10 of the molar value. Where a name gives a salt, the structure may show the parent alone.
observation.type: pIC50

INSERT INTO measurements (compound, observed_value) VALUES
  ('O=C(O)C(Nc1cccc(OCc2ccc3ccccc3n2)c1)c1ccccc1 (racemic) [Example 15]', 7.80),
  ('O=C(O)[C@H](O)[C@H](Nc1cccc(OCc2ccc3ccccc3n2)c1)c1ccccc1 (relative stereo) [Example 1, sodium salt]', 8.60);
